Taken from ChEMBL document CHEMBL3433997.

biological target: Solute carrier family 2, facilitated glucose transporter member 1 (Homo sapiens) (UniProt P11166); experiment: ST_JUDE_LEISH: Cytotoxicity at 2uM final concentration against transgenic Leishmania Mexicana promastigotes LmGLUT1 that are glucose transport deficient and complemented with the human glucose transporter GLUT1. Activity is measured by DNA content using SYBR green in vitro; type: functional
Sequence (P11166 whole entry): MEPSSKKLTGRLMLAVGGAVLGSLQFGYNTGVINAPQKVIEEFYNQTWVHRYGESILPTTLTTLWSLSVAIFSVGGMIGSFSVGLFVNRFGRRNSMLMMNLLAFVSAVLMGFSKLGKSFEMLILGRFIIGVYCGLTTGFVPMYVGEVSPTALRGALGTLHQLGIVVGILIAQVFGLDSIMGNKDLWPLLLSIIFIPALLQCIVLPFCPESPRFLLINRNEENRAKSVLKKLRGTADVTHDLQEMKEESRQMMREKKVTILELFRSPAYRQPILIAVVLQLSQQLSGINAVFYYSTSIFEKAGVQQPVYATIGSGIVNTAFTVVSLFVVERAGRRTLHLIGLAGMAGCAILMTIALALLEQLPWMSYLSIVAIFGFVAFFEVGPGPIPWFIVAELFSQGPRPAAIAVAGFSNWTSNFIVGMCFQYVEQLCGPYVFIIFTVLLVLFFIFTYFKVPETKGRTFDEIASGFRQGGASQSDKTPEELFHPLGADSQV
Readout Type: inhibition (%)
Note: unit % is implicit; provide only the numeric part.

Query block: I am curious: what inhibition value has been reported for Cc1cc(N[C@@H](Cc2ccccc2)C(=O)NC2CCCC2)nc(NCc2ccccc2C)n1 ?
Result block: 6.22

Query block: Given the entry c1ccc2c(c1)CN(CC1CC1)CC1(CCN(Cc3c[nH]c4cnccc34)CC1)O2 , report its measured inhibition.
Result block: -0.99

Query block: Fill blank: measured inhibition of the compound N=C(N)c1ccc(C=Cc2ccc(C(=N)N)cc2O)cc1 is ____.
Result block: -0.26

Query block: Which inhibition is listed for CN(CCCNC(=S)NC12CC3CC(CC(C3)C1)C2)CCCNc1ccnc2cc(Cl)ccc12 ?
Result block: -1.07

Query block: Item C=CCc1cccc(OC)c1OCCCON1C(=N)N=C(N)NC1(C)C has what recorded inhibition?
Result block: -0.04

Query block: Looking for the measured inhibition of CC(=O)Oc1c(Cl)c(C)nc(C)c1-c1ccc(Oc2ccc(OC(F)(F)F)cc2)cc1 , can you help?
Result block: 3.62

Query block: Suppose we examine the compound N#Cc1ccc2c(c1)CN(C1CCC(NC(=O)c3cc(-c4ccc(Cl)cc4)cs3)CC1)CCC2 (stereo not drawn) ; what inhibition value has been reported?
Result block: 3.29

Query block: Could you share which inhibition value was measured for COc1ccc(NC(=O)c2csc(-c3cc(NC(=O)c4ccnc(N5CCCC5)c4)ccc3C)c2)cc1N1CCN(C)CC1 ?
Result block: 1.89

* * *

Provide the reported inhibition of each item.
target: Hexose transporter 1 (Plasmodium falciparum); assay: ST_JUDE_LEISH: Cytotoxicity at 2uM final concentration against transgenic Leishmania Mexicana promastigotes LmPfHT that are glucose transport deficient and complemented with the Plasmodium falciparum hexose transporter. Activity is measured by DNA content using SYBR green in vitro; format: functional
Number only, in %; omit the unit.

Query block: State the recorded inhibition for this entry: CC1CN(Cc2ccc(-c3ccc(-c4nc5cc(F)ccc5[nH]4)cc3)cc2)CC(C)O1 (centres undefined)
Result block: 6.63

Query block: Need inhibition, item Oc1ccc2nc(NCCCc3ccccc3)nc(NCCCc3ccccc3)c2c1
Result block: 20.7

Query block: Reported inhibition, compound Cc1cc(NC(=O)NCCN2CCC(NS(=O)(=O)c3cccc(Br)c3)C2)c2ccccc2n1 (centres undefined) : ____
Result block: 0.98

Query block: # inhibition lookup, item CC(C)C1C(O)=C(c2ccc3ccccc3c2)C(=O)N1Cc1ccsc1 (centres undefined)
Result block: 5.59

Query block: Item under review: O=C(N[C@@H](CC1CCCCC1)C(=O)NCCN1CCCCC1)c1ccc(O)c(-c2cccc(C(F)(F)F)c2)c1 . Reported inhibition?
Result block: 3.95

Query block: Report inhibition for O=S(=O)(NCCN1CCCC1)c1ccc(-c2ccc(CNC3Cc4ccccc4C3)cc2)cc1F please.
Result block: 13.9

Query block: What value of measured inhibition is listed for CCN1CCN(CCCNc2c3ccccc3nc3ccccc23)CC1 ?
Result block: 55.3

Query block: Give its inhibition value. Item: Cc1cc(-c2ccc(NC(=O)N3CCc4cc(Br)c(N5CCN(C)CC5)cc43)cc2)cc(C)n1
Result block: 8.41

Query block: What measured inhibition goes with O=C(Nc1ccc(Cl)c(C(F)(F)F)c1)c1ccc(Cl)c([N+](=O)[O-])c1 ?
Result block: 3.41

Query block: Please look up its inhibition: COc1ccc(OC)c2c1CCN(C)C2Cc1cccc2ccccc12 (centres undefined)
Result block: 3.87

Query block: # input compound: COc1ccc2nccc([C@@H](O)CN3CCC(NCc4cc5ccccc5s4)CC3)c2c1 ; wanted: its inhibition
Result block: 10.3

Query block: What does the data say about its inhibition? Entry: CCN(CC)CCN(Cc1ccc(-c2ccc(C(F)(F)F)cc2)cc1)C(=O)Cn1c(CCc2ccc(F)cc2)nc(=O)c2sccc21
Result block: 1.22

Query block: Fill in: inhibition of COc1ccc(OC)c(-c2cccc(-c3cccc(NC(=O)c4ccc([N+](=O)[O-])o4)c3)n2)c1 is ___
Result block: 9.55

Query block: Record request: inhibition value, item COCc1nc(N)nc(N)c1-c1ccc(Cl)c(Cl)c1
Result block: 0.2

* * *

target: Glucose transporter (Leishmania mexicana) (UniProt O61059); assay: ST_JUDE_LEISH: Cytotoxicity at 2uM final concentration against transgenic Leishmania Mexicana promastigotes LmGT2 that are glucose transport deficient and complemented with the L. Mexicana glucose transporter 2. Activity is measured by DNA content using SYBR green in vitro; type: functional
So I've got a bunch of compounds here, and I need their inhibition values.
# value in %; strip the unit string

Query block: Given the entry COc1ccc(NC2=C(c3ccccc3)C(=O)c3ccccc32)cn1 , what inhibition was observed with Glucose transporter (Leishmania mexicana) (UniProt O61059)?
Result block: 3.49

Query block: Hello, I am looking for reported inhibition with Glucose transporter (Leishmania mexicana) (UniProt O61059) for CC[C@H](NC(=O)c1ccc(NC(=O)OC(C)(C)C)cc1)C(=O)N[C@@H](CO)C(=O)NCCCCc1ccccc1 . Could you help?
Result block: -0.11

Query block: Recall the recorded inhibition for COc1c(C2=CCN(CCCCNC(=O)c3ccc(-c4ccc(C#N)cc4)cc3)CC2)ccc2c1CCCC2 with Glucose transporter (Leishmania mexicana) (UniProt O61059) and state it.
Result block: 0.06

Query block: Item CS(=O)(=O)c1ccc(CNCc2cccc(-c3cccc(-c4nc5ccccc5[nH]4)c3)c2)cc1 with Glucose transporter (Leishmania mexicana) (UniProt O61059) - inhibition?
Result block: -2.15

Query block: Could you share what inhibition was measured for Cc1cccc(C(=O)Nc2ccnc(N3CCC(N(C)Cc4cccc(C#N)c4)CC3)c2)c1 , tested on Glucose transporter (Leishmania mexicana) (UniProt O61059)?
Result block: 4.5

Query block: Glucose transporter (Leishmania mexicana) (UniProt O61059) / inhibition / CCCCc1ccc(Cc2cnc3nc(N)nc(N)c3c2C)cc1 : value?
Result block: 15.6

Query block: I'm curious: which inhibition was measured for O=C(Nc1ccon1)c1cc(-c2cccnc2)nc2ccc(Br)cc12 tested on Glucose transporter (Leishmania mexicana) (UniProt O61059)?
Result block: 0.72

Query block: # query: inhibition | item O=C(Cc1cn(-c2ccccc2)nc1-c1ccc(Cl)cc1)Nc1nccs1 | system: Glucose transporter (Leishmania mexicana) (UniProt O61059)
Result block: 7.98

Query block: # get_value(readout= inhibition, system= Glucose transporter (Leishmania mexicana) (UniProt O61059)) for CCCOc1cc(OCCC)cc(-c2ccc(C(=O)Nc3ccc4ccc(C)nc4c3)c(=O)[nH]2)c1
Result block: 3.33

Query block: Please provide the recorded inhibition for Cc1c(CCNC(=O)CCCN2CC(C)CC(C)C2)c2ccccc2n1C (stereo not drawn) , tested on Glucose transporter (Leishmania mexicana) (UniProt O61059).
Result block: 3.01

Query block: Record Cc1cc(N(C)C)nc(Nc2ccc(NC(=O)c3cccc(F)c3)cc2)n1 : what is its inhibition with Glucose transporter (Leishmania mexicana) (UniProt O61059)?
Result block: 3.75

Query block: Hi! What's the reported inhibition for O=C(Nc1cccc(CN2CCCN(CC3CCCCC3)CC2)c1)c1ccc(Cl)c(Cl)c1 on Glucose transporter (Leishmania mexicana) (UniProt O61059)?
Result block: 10.5

Query block: Record lookup: for Glucose transporter (Leishmania mexicana) (UniProt O61059), what inhibition belongs to CN(C)c1ccc(-c2csc(C(=O)NC3CCCCN(Cc4ccc(C(C)(C)C)cc4)C3)c2)cc1 (stereo not drawn) ?
Result block: 1.96

Query block: So what inhibition did O=C(CCC1CCCC1)N(Cc1ccc(-c2ccc(CNCCc3ccccc3)cc2)cc1)C1CCCNC1 (stereo not drawn) get with Glucose transporter (Leishmania mexicana) (UniProt O61059)?
Result block: 0.14

Query block: Entry Cc1cc(Nc2ccc3ccccc3c2)n2ncnc2n1 , system Glucose transporter (Leishmania mexicana) (UniProt O61059): what inhibition was measured?
Result block: -1.18

Query block: Please tell me: inhibition of O=S(=O)(Nc1ccc(CCN2CCC(N3CCCCC3)CC2)cc1)c1ccc(Cl)cc1 , system Glucose transporter (Leishmania mexicana) (UniProt O61059)?
Result block: 2.94

Query block: Notebook entry, Glucose transporter (Leishmania mexicana) (UniProt O61059) assay: inhibition of CCCCCN1CCCC(NS(=O)(=O)c2cccc(C(=O)Nc3cccc(C(F)(F)F)c3)c2)C1 (stereo not drawn) = ?
Result block: -2.02

Query block: Notebook: pull reported inhibition for Glucose transporter (Leishmania mexicana) (UniProt O61059), entry O=C(/C=C/c1ccc(Cl)c(Cl)c1)NCCCCCCN1CCN(C(=O)Nc2ccc(C(F)(F)F)cc2)CC1
Result block: 3.19

Query block: What inhibition appears in the records for this compound with Glucose transporter (Leishmania mexicana) (UniProt O61059)? CC(C)(C)c1nn(-c2ccc(Cl)cc2)c2[nH]c(=O)c(CNCc3ccc4c(c3)OCO4)cc12
Result block: 5.03

Query block: Checklist item: inhibition tested on Glucose transporter (Leishmania mexicana) (UniProt O61059), entry Cc1ccc(-n2c(Cc3cccc4ccccc34)nnc2SCCC#N)c(C)c1 , value?
Result block: 8.9

Query block: Identify the measured inhibition of C[C@@H](Nc1nc(NCc2ccccc2)c2sccc2n1)c1ccccc1 for Glucose transporter (Leishmania mexicana) (UniProt O61059).
Result block: 8.39

Query block: Any idea what inhibition came out for CC(C)COc1ccc(Cl)cc1Cc1ccc(-c2nc3c(F)cccc3[nH]2)o1 on Glucose transporter (Leishmania mexicana) (UniProt O61059)?
Result block: 2.89

Query block: inhibition of CN1CCN(C(=O)CN2CCC3(CCC2=O)NC(=O)c2ccccc2O3)CC1 (stereo not drawn) on Glucose transporter (Leishmania mexicana) (UniProt O61059)?
Result block: 3.13

Query block: Can you look up inhibition on Glucose transporter (Leishmania mexicana) (UniProt O61059) for O=C(Nc1ccc(Cl)cc1)Nc1cccc(-c2cccc(-c3nc4cc(C(F)(F)F)ccc4[nH]3)c2)c1 ?
Result block: -2.27

Query block: I'm curious: which inhibition was measured for O=C(NCCCCN1CCC(c2ccc3ccccc3c2O)CC1)c1ccc(NC(=O)c2ccc(Cl)cc2)cc1 tested on Glucose transporter (Leishmania mexicana) (UniProt O61059)?
Result block: 0.92

Query block: Notebook: pull reported inhibition for Glucose transporter (Leishmania mexicana) (UniProt O61059), entry CCCCNC(=N)Nc1ccc(OCCCOc2ccc(NC(=N)NCCCC)cc2)cc1
Result block: 0.01

Query block: Provide the documented inhibition with Glucose transporter (Leishmania mexicana) (UniProt O61059) as the system for CCCCOc1cc2c(cc1OCC)C(C=Cc1ccc(Cl)cc1Cl)=NCC2
Result block: 10.2

Query block: Give recorded inhibition with Glucose transporter (Leishmania mexicana) (UniProt O61059) for the following compound: COc1ccc(-n2cc(CNCCCn3ccnc3)c(-c3cccc(F)c3)n2)cc1
Result block: -5.03
